List of Population Hoechst High Intensity Objects (%) values.
- Test system: Fibroblast
- assay remarks: Multiplex assay against human fibroblast
- Assay type: toxicity, cell-based
- assay context: 12 h, 10 µM, compound concentration 10 uM, replicate 1

Example molecules with recorded Population Hoechst High Intensity Objects (%):
[
  {
    "molecule": "CCC(=O)OCC(=O)[C@@]1(OC(=O)CC)[C@@H](C)C[C@H]2[C@@H]3CCC4=CC(=O)C=C[C@]4(C)[C@@]3(Cl)[C@@H](O)C[C@@]21C [BECLOMETHASONE DIPROPIONATE]",
    "observed result": "8%"
  },
  {
    "molecule": "Cc1nn(C)c2nc(NNC(=O)Nc3cc(Cl)nc(Cl)c3)cc(C(C)C)c12",
    "observed result": "3%"
  },
  {
    "molecule": "C[C@@H]1CC(=O)Nc2cccc(-c3ccc4c(c3)c(-c3cnn(C)c3)nn4C)c2N1",
    "observed result": "5%"
  }
]

Task item: Request the reported Population Hoechst High Intensity Objects (%) associated with COc1cc(C(=O)N2CC[C@@H](O)[C@@H](N)C2)cc2nc(-c3cc4ccccc4n3CC3CC3)n(C)c12.Cl
Reply: 6%

Task item: Quick one: Population Hoechst High Intensity Objects (%) for Nc1nc(CC(=O)Nc2ccc(CCNC[C@H](O)c3ccccc3)cc2)cs1 ?
Reply: 3%

Task item: Look up Population Hoechst High Intensity Objects (%): CN(C)C/C=C/C(=O)Nc1ccc(C(=O)N2CCCC(Nc3ncc(Cl)c(-c4c[nH]c5ccccc45)n3)C2)cc1 (stereo not drawn)
Reply: 4%

Task item: Fill blank: measured Population Hoechst High Intensity Objects (%) of the molecule CSc1nc(NC2CCCC2)c([N+](=O)[O-])c(NC2CCCC2)n1 is ____.
Reply: 5%

Task item: Would you kindly share the measured Population Hoechst High Intensity Objects (%) for Cc1cc(O)c(-c2ccc([C@@H](C)CN(C)C)cc2)c2c1[nH]c(=O)c1sccc12 ?
Reply: 6%

* * *

- Tested on: U2OS
- assay remarks: Multiplex assay against U2OS
- Assay type: toxicity, cell-based
- assay context: human, 48 h, 1 µM, compound concentration 1 uM, replicate 1
Criterion: Population Mitotic Cells (%) strictly under 9%. Met: 1. Not met: 0.

[
  {
    "molecule": "COc1cc2nc(N3CCN(C(=O)COc4c(OC)cccc4C(C)C)CC3)nc(N)c2cc1OC.Cl.Cl",
    "tested system": "U2OS",
    "category label": 0
  },
  {
    "molecule": "CCC(=O)OCC(=O)[C@@]1(OC(=O)CC)[C@@H](C)C[C@H]2[C@@H]3CCC4=CC(=O)C=C[C@]4(C)[C@@]3(Cl)[C@@H](O)C[C@@]21C [BECLOMETHASONE DIPROPIONATE]",
    "tested system": "U2OS",
    "category label": 1
  },
  {
    "molecule": "CCCCC[C@H](O)/C=C/[C@H]1[C@H](O)CC(=O)[C@@H]1CCCCCCC(=O)O",
    "tested system": "U2OS",
    "category label": 0
  }
]

Task item: Does Cn1cc(C(=O)OCC2CCN(CCNS(C)(=O)=O)CC2)c2ccccc21 have Population Mitotic Cells (%) strictly under 9%?
Reply: 1

Task item: Please let me know if C=CCN1C[C@H](C(=O)N(CCCN(C)C)C(=O)NCC)C[C@@H]2c3cccc4[nH]cc(c34)C[C@H]21 shows Population Mitotic Cells (%) below 9%.
Reply: 0

Task item: Strictly below 9%: is that where Population Mitotic Cells (%) of S=C(NCCCc1c[nH]cn1)NCCCN(Cc1ccc(Cl)c(Cl)c1)c1ccc(Br)cn1 sits?
Reply: 0

* * *

- Tested on: Fibroblast
- assay remarks: Multiplex assay against human fibroblast
- Assay type: toxicity, cell-based
- assay context: 24 h, 10 µM, compound concentration 10 uM, replicate 1
observable: Population Mitotic Cells (%)
# unit: % | format: bare number

In the examples that follow, each entry is paired with its recorded Population Mitotic Cells (%).
[
  {
    "compound": "CSc1nc(NC2CCCC2)c([N+](=O)[O-])c(NC2CCCC2)n1",
    "observed result": 41
  },
  {
    "compound": "S=C(NCCCc1c[nH]cn1)NCCCN(Cc1ccc(Cl)c(Cl)c1)c1ccc(Br)cn1",
    "observed result": 33
  },
  {
    "compound": "COc1ccc2[nH]c(I)c(CCNC(C)=O)c2c1",
    "observed result": 64
  },
  {
    "compound": "CN1CCC(C(=O)c2cccc(NC(=O)c3c(F)cc(F)cc3F)n2)CC1",
    "observed result": 45
  },
  {
    "compound": "Cc1nn(C)c2nc(NNC(=O)Nc3cc(Cl)nc(Cl)c3)cc(C(C)C)c12",
    "observed result": 47
  }
]

Task item: # get_value(readout= Population Mitotic Cells (%), system= Fibroblast) for COc1cc2nc(N3CCN(C(=O)COc4c(OC)cccc4C(C)C)CC3)nc(N)c2cc1OC.Cl.Cl
Reply: 60

Task item: Any idea what Population Mitotic Cells (%) came out for C=CCN1C[C@H](C(=O)N(CCCN(C)C)C(=O)NCC)C[C@@H]2c3cccc4[nH]cc(c34)C[C@H]21 on Fibroblast?
Reply: 26

Task item: Recorded Population Mitotic Cells (%) for CN(C)C/C=C/C(=O)Nc1ccc(C(=O)N2CCCC(Nc3ncc(Cl)c(-c4c[nH]c5ccccc45)n3)C2)cc1 (centres undefined) with Fibroblast, please?
Reply: 34

Task item: Record lookup: for Fibroblast, what Population Mitotic Cells (%) belongs to Cc1ccc(OCC(O)C(C)NC(C)C)c2c1CCC2.Cl (centres undefined) ?
Reply: 64

* * *

Population Hoechst High Intensity Objects (%) overview
- Test system: U2OS
- assay remarks: Multiplex assay against U2OS
- Format: toxicity, cell-based
- assay context: human, 48 h, 10 µM, compound concentration 10 uM, replicate 1
Numeric answer only, unit % assumed.

[
  {
    "molecule": "Cn1cc(C(=O)OCC2CCN(CCNS(C)(=O)=O)CC2)c2ccccc21",
    "tested system": "U2OS",
    "observed result": 1
  },
  {
    "molecule": "COc1c(Nc2ccc(S(C)(=O)=O)nc2C)ncnc1OC1CCN(C(=O)OC(C)C)CC1",
    "tested system": "U2OS",
    "observed result": 6
  }
]

Please turn your attention to the following entry.
Task item: Any idea what Population Hoechst High Intensity Objects (%) came out for O=C(O)CCC/C=C\CC1C(O)CC(O)C1/C=C/C(O)COc1cccc(Cl)c1 (stereo not drawn) on U2OS?
Reply: 3

* * *

- Test system: U2OS
- assay remarks: Multiplex assay against U2OS
- Type: toxicity, cell-based
- assay context: human, 48 h, 1 µM, compound concentration 1 uM, replicate 2
Non-standard residues stand in square brackets, D forms with d. Residues, ends and D or L forms follow the SMILES beside them.
Property: Population Healthy Nuclei (%); scope: individual molecules
Write the number in % without appending the unit.

[
  {
    "molecule": "O=C(Nc1cc(-c2ccccc2)nn1-c1ccccc1F)c1ccc([N+](=O)[O-])cc1",
    "Population Healthy Nuclei (%)": 79
  },
  {
    "molecule": "CC(C)C[C@@H]1NC(=O)[C@@H](C(C)C)NC(=O)[C@@H]2CCCN2C(=O)[C@@H](CC(=O)O)NC(=O)[C@@H](Cc2c[nH]c3ccccc23)NC1=O [BQ-123] (cyclo(L[dW][dD]P[dV]))",
    "Population Healthy Nuclei (%)": 70
  }
]

Task item: State its Population Healthy Nuclei (%) on U2OS: O=C(NCCNCC(O)COc1ccc(O)cc1)N1CCOCC1.O=C(NCCNCC(O)COc1ccc(O)cc1)N1CCOCC1.O=C(O)/C=C/C(=O)O (configuration not stated) [XAMOTEROL FUMARATE]
Reply: 62

Task item: Checklist item: Population Healthy Nuclei (%) tested on U2OS, entry COc1cc2nc(N3CCN(C(=O)COc4c(OC)cccc4C(C)C)CC3)nc(N)c2cc1OC.Cl.Cl , value?
Reply: 72

Task item: Provide value of Population Healthy Nuclei (%) for this record tested with U2OS: CSc1nc(NC2CCCC2)c([N+](=O)[O-])c(NC2CCCC2)n1
Reply: 71

Task item: Request body: readout Population Healthy Nuclei (%), system U2OS, query CN(C)C/C=C/C(=O)Nc1ccc(C(=O)N2CCCC(Nc3ncc(Cl)c(-c4c[nH]c5ccccc45)n3)C2)cc1 (configuration not stated) . Return the value.
Reply: 77

Task item: Quick check: Population Healthy Nuclei (%) on U2OS, item Cc1sc2c(c1C)C(c1ccc(Cl)cc1)=N[C@H](CC(=O)OC(C)(C)C)c1nnc(C)n1-2 ?
Reply: 64

* * *

- Test system: Fibroblast
- assay remarks: Multiplex assay against human fibroblast
- Format: toxicity, cell-based
- assay context: 24 h, 1 µM, compound concentration 1 uM, replicate 1
observable: Population Normal (%)
Kindly answer with a numeric value in %, unit omitted.

[
  {
    "compound": "C=CCN1C[C@H](C(=O)N(CCCN(C)C)C(=O)NCC)C[C@@H]2c3cccc4[nH]cc(c34)C[C@H]21",
    "Population Normal (%)": 95
  }
]

Task item: Dear colleague, I am looking for the recorded Population Normal (%) of the following compound: CCc1nn2c(C)cc(C)nc2c1Cc1ccc(-c2nnc(C3CCNCC3)o2)cc1
Reply: 98

Task item: For the compound CC(C)(C)c1ccc(CSc2cnn(C(C)(C)C)c(=O)c2Cl)cc1 , what Population Normal (%) is on record?
Reply: 99

Task item: Need Population Normal (%) of COc1cc(OC2CCN(C(C)=O)CC2)ccc1C(=O)N1CCC(N2C(=O)OCc3ccccc32)CC1 , thanks.
Reply: 98

Task item: # get_value(readout='Population Normal (%)', item= Cc1cc(O)c(-c2ccc([C@@H](C)CN(C)C)cc2)c2c1[nH]c(=O)c1sccc12 )
Reply: 92

Task item: State the recorded Population Normal (%) for this entry: Cc1nn(C)c2nc(NNC(=O)Nc3cc(Cl)nc(Cl)c3)cc(C(C)C)c12
Reply: 98
